test: Plasma protein binding in rat; format: ADME, cell-free; details: read-out: PPB (converted)
measurement-name: fraction unbound

Q. Reported fraction unbound, molecule CC(C)[C@]1(C)SC(N[C@H]2C[C@@H]3CC[C@H]2C3)=NC1=O : ____
A. 0.15

----------
experiment: Drug excretion in female Sprague-Dawley rat urine treated with [14C]-AMG 221 at 2 mg/kg, po measured over 24 hrs by LC-MS/HPLC radiometric analysis; format: ADME, organism-based; parameters: dose 2 mg/kg, route oral; settings: in vivo
measurement-name: Drug excretion (%)
The reply should be a number in %, with the unit left off.

Q. Reported Drug excretion, compound CC(C)[C@]1(C)SC(N[C@H]2C[C@H]3C[C@@H]2C[C@@H]3O)=NC1=O : ____
A. 24

Q. And what about the compound C[C@H](CO)[C@]1(C)SC(N[C@H]2C[C@@H]3CC[C@H]2C3)=NC1=O ?
A. 37

Q. And what about the compound CC(C)(O)[C@]1(C)SC(N[C@H]2C[C@H]3C[C@@H]2[C@H](O)C3)=NC1=O ?
A. 24

Q. And what about the compound CC(C)[C@]1(C)SC(N[C@H]2C[C@H]3C[C@@H]2[C@H](O)[C@@H]3O)=NC1=O ?
A. 24

Q. And what about the compound C[C@H](CO)[C@]1(C)SC(N[C@H]2C[C@H]3C[C@@H]2C[C@@H]3O)=NC1=O ?
A. 24

Q. And what about the compound CC(C)(O)[C@]1(C)SC(N[C@H]2C[C@@H]3CC[C@H]2C3)=NC1=O ?
A. 37

Q. And what about the compound C[C@H](CO)[C@]1(C)SC(N[C@H]2C[C@H]3C[C@@H]2[C@H](O)C3)=NC1=O ?
A. 24

Q. And what about the compound CC(C)(O)[C@]1(C)SC(N[C@H]2C[C@H]3C[C@@H]2C[C@H]3O)=NC1=O ?
A. 24

Q. And what about the compound C[C@@H](CO)[C@]1(C)SC(N[C@H]2C[C@H]3C[C@@H]2C[C@@H]3O)=NC1=O ?
A. 24
